B1: CDC14A (parent)
chain: GPHPKSKIENGYPLHAPEAYFPYF

Variants of: B1
METHOD_NOTES: protein stability index of a GFP-peptide fusion (GPS, HEK-293T) (PSI 1-6); higher = more stable;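 also: lentivirally expressed fusions sorted by FACS into six bins by GFP to DsRed ratio, PSI derived from sequencing read proportions per bin multiplied by bin number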
TEST_PARAMETERS: c terminus: a fixed tail appended
MEASUREMENT_NAME: protein stability index

{"MUTATION_STRING": "A16L", "MEASUREMENT_NAME": "protein stability index", "READING": 1.95}
{"MUTATION_STRING": "P22S", "MEASUREMENT_NAME": "protein stability index", "READING": 1.98}
{"MUTATION_STRING": "N10D", "MEASUREMENT_NAME": "protein stability index", "READING": 1.96}
{"MUTATION_STRING": "K5G", "MEASUREMENT_NAME": "protein stability index", "READING": 1.99}
{"MUTATION_STRING": "A16M", "MEASUREMENT_NAME": "protein stability index", "READING": 2.01}
